system: HIV virus; viral reverse transcriptase; experiment: inhibition of viral replication by microassay of the enzymatic activity of the viral reverse transcriptase in CEM culture supernatants; type: cell-based; set-up: unit not given here; settings: 0.2 uM, D26
measurement-label: reverse transcriptase activity in culture supernatant

compound	assayed-target	reported-value
CCCCCCCCCCCCCCCCOP(=O)(OC[C@H]1OC(O)[C@@H](O)[C@@H](O)[C@@H]1O)OC[C@H]1O[C@@H](n2cc(C)c(=O)[nH]c2=O)C[C@@H]1N=[N+]=[N-] (stereo partly shown) [CT 7627]	HIV virus; viral reverse transcriptase	73000
Cc1cn([C@H]2C[C@H](N=[N+]=[N-])[C@@H](COP(=O)(O)OC[C@H]3OC(O)[C@@H](O)[C@@H](O)[C@@H]3O)O2)c(=O)[nH]c1=O (stereo partly shown) [CT 7626]	HIV virus; viral reverse transcriptase	85000
CCCCCCCCCCCCCCCCOP(=O)(OCCO[C@H]1O[C@H](CO)[C@@H](O)[C@H](O)[C@@H]1O)OC[C@H]1O[C@@H](n2cc(C)c(=O)[nH]c2=O)C[C@@H]1N=[N+]=[N-] (stereo partly shown) [CT 7625]	HIV virus; viral reverse transcriptase	61000
Cc1cn([C@H]2C[C@H](N=[N+]=[N-])[C@@H](COP(=O)(O)OCCO[C@H]3O[C@H](CO)[C@@H](O)[C@H](O)[C@@H]3O)O2)c(=O)[nH]c1=O [CT 7624]	HIV virus; viral reverse transcriptase	70000
